Values compiled from the supplement of paper PMC3545927.

- system-tested: furin, P09958;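 note: purified furin at 1:10 enzyme:substrate in 50 mM HEPES pH 7.5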
- Sequence (P09958 whole entry): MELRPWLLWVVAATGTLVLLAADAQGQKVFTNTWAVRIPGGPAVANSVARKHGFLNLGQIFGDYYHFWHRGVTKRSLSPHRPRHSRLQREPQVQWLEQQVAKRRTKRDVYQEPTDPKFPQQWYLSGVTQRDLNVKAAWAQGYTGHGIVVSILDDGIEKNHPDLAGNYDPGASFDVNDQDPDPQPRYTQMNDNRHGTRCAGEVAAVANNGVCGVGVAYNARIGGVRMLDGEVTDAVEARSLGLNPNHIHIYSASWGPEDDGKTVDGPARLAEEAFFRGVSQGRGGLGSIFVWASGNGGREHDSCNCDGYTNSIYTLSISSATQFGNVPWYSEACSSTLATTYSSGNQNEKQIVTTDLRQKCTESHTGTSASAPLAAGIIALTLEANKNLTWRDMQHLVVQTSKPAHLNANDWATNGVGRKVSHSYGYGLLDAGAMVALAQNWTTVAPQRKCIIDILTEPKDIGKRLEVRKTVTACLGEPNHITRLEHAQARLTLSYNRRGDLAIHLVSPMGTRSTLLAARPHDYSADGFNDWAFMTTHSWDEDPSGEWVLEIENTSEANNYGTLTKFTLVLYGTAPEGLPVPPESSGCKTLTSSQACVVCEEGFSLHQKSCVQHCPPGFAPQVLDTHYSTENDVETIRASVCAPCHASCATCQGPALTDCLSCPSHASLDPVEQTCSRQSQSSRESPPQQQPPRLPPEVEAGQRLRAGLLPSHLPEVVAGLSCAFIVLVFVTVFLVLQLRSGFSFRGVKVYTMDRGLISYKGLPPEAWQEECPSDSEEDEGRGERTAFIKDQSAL
- assay-summary: furin cleavage Z-score vs untreated control; higher = more cleavage, active = 3.5 or more, inactive = 1 or less, 8 variable residues between constant flanks
- condition-parameters: 7.5 min
This is one part of the list. No count for the full screen is at hand.
Classes used: active, inactive

> print(dat)
               monomer.sequence  assigned.category
1   CAEVPCHRHSAGNASASA [HC2395]           inactive
2  CARGRKSPSKAGNASASA [FS-2673]           inactive
3  CARGRRSPHTAGNASASA [FS-3252]             active
4  CAREQRSNGLAGNASASA [FS-3245]           inactive
5    CAWGPISYANAGNASASA [HC395]           inactive
6   CASQPCSAHLAGNASASA [HC2502]           inactive
7    CASPRGSRPSAGNASASA [HC210]           inactive
8   CAGPGRPYRAAGNASASA [FS-784]           inactive
